- system-name: T1, biotinylated CD3 epsilon:delta heterodimer protein (Amsbio AMS.CDD-H52WO) (Homo sapiens (Human), UniProt P07766 23-126; P04234 22-105)
- T1 construct: also called CD3 heterodimer
- experiment-summary: BLI (Octet), CD3 on SA sensor, Fab analyte;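 note: fabs dipped at several concentrations (0–300 nM) onto CD3-loaded streptavidin biosensors, 100 s association then 300 s dissociation in buffer, pH 7.4, sensors blocked with biocytin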
measurement-kind: pKd
Numbers only, as −log10 of the molar value.

huSP34.11.8 Fab-HF (Fab, V domains shown, also called HC11+LC8) VH: EVQLVESGGGLVQPGGSLRLSCAASGFTFSTYAMNWVRQAPGKGLEWVGRIRSKYNNYATYYAASVKGRFTISRDDSKNSLYLQMNSLRTEDTAVYYCVRHGNFGHSYVSWFAYWGQGTLVTVSS VL: QAVVTQEPSLTVSPGGTVTLTCGSSTGAVTTGHYANWVQQKPGQAPRGLIGGTNKRAPGVPARFSGSLLGGKAALTISGAQPEDEAEYYCALWYSNRWVFGGGTKLTVL ... 8.55

Let us move to another entry and its pKd.
Task: Identify the reported pKd for the following entry. huSP34.12.7 Fab-HF (Fab, V domains shown, also called HC12+LC7) VH: EVQLVESGGGLVQPGGSLRLSCAASGFTFSTYAMNWVRQAPGKGLEWVARIRSKYNNYATYYAASVKGRFTISRDDSKNSLYLQMNSLRTEDTAVYYCVRHGNFGHSYVSWFAYWGQGTLVTVSS VL: QAVVTQEPSLTVSPGGTVTLTCRSSTGAVTTGHYANWVQQKPGQAPRGLIGGTNKRAPGVPARFSGSLLGGKAALTISGAQPEDEAEYYCALWYSNLWVFGGGTKLTVL
Output: 8.57
